# Target System: T1, nSR100 (Mus musculus, UniProt Q8BKA3)
# T1 construct: host or cells: mouse N2A cells
# T1 sequence (Q8BKA3 1-608): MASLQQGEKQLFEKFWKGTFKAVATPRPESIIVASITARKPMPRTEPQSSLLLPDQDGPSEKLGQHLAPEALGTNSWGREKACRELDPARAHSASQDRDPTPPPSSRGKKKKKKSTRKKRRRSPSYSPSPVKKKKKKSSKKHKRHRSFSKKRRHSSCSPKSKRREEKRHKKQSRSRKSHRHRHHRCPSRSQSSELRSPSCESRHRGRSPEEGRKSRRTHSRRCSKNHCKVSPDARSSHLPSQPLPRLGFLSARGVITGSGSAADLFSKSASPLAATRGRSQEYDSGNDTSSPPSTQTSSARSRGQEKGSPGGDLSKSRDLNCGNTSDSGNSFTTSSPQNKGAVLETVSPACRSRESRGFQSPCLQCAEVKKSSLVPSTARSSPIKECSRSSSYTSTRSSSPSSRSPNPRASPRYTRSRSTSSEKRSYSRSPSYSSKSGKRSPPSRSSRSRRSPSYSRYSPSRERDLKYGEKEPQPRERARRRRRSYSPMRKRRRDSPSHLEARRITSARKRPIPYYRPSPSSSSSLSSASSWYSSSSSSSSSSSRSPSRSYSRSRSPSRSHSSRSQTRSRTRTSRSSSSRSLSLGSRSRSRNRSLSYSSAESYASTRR
# Assay Details: AP-MS nSR100 interaction partners from mouse N2A cells (Table 5)
# Assay type: binding
# Condition Context: bait Srrm4, sum of spectra over 2 replicates
Quantity Measured: SpecSum

// Necap1 (protein, UniProt Q9CR95 1-275, looked up) Adaptin ear-binding …: MAAELEYESVLCVKPDVSVYRIPPRASNRGYRASDWKLDQPDWTGRLRITSKGKIAYIKLEDKVSGELFAQAPVEQYPGIAVETVTDSSRYFVIRIQDGTGRSAFIGIGFTDRGDAFDFNVSLQDHFKWVKQETEISKESQEMDNRPKLDLGFKEGQTIKLSIGNITAKKGGASKPRASGTGGLSLLPPPPGGKVTIPPPSSSVAISNHVTPPPIPKSNHGGNDSDILLDLDSPAPVSTSAPAPVSTSNDLWGDFSTASSSVPNQAPQPSNWVQF : SpecSum value = 25

src = patent US10772928B2
